Biological target: T1, human IFN-ω (human, UniProt P05000 24-195)
T1 construct: Recombinant, HEK293; also called interferon omega
Assay: ProteOn SPR, cell supernatant;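 note: each binding measurement used just a single antigen concentration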
Please provide measured Kd for the entries that follow.
Give bare numbers, in nM.

IFWM3370 (antibody, IgG1, V domains shown, mAb; IgG1/kappa said of the parent and of selected mAbs; also called IFWB3105) VH: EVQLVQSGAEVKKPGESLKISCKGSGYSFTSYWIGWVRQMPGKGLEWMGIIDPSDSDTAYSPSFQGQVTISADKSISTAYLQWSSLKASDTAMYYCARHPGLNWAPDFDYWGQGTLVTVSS VL: DIQMTQSPSSLSASVGDRVTITCRASQSIDNSYLNWYQQKPGKAPKLLIYGASSLQSGVPSRFSGSGSGTDFTLTISSLQPEDFATYYCQQGWDWPLTFGQGTKVEIK : 0.01
IFWM3420 (antibody, IgG1, V domains shown, mAb; IgG1/kappa said of the parent and of selected mAbs; also called IFWB3155) VH: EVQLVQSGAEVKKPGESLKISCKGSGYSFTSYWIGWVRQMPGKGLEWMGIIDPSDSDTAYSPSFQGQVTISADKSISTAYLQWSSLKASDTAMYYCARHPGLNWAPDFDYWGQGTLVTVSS VL: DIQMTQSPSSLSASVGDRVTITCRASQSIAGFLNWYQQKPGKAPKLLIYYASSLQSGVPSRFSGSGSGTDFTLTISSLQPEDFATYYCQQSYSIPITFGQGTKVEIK : 0.036
IFWM3388 (antibody, IgG1, V domains shown, mAb; IgG1/kappa said of the parent and of selected mAbs; also called IFWB3123) VH: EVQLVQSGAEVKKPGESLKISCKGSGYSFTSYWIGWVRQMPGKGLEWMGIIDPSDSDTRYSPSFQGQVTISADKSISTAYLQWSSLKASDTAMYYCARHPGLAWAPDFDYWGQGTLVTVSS VL: DIQMTQSPSSLSASVGDRVTITCRASQSIGKSLNWYQQKPGKAPKLLIYFASSLQSGVPSRFSGSGSGTDFTLTISSLQPEDFATYYCQQSYDFPLTFGQGTKVEIK : 0.033
IFWM3405 (antibody, IgG1, V domains shown, mAb; IgG1/kappa said of the parent and of selected mAbs; also called IFWB3140) VH: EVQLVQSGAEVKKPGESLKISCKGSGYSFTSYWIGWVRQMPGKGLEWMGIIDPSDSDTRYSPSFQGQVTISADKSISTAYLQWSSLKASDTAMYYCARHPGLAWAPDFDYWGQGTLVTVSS VL: DIQMTQSPSSLSASVGDRVTITCRASQSIANNNLNWYQQKPGKAPKLLIHWASSLQSGVPSRFSGSGSGTDFTLTISSLQPEDFATYYCQQGYDTPFTFGQGTKVEIK : 0.02
IFWM3396 (antibody, IgG1, V domains shown, mAb; IgG1/kappa said of the parent and of selected mAbs; also called IFWB3131) VH: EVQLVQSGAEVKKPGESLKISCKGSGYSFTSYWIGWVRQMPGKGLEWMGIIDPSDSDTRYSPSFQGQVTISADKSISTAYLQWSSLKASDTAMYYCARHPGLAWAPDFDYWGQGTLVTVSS VL: DIQMTQSPSSLSASVGDRVTITCRASQSISEYLNWYQQKPGKAPKLLIYFASSLQSGVPSRFSGSGSGTDFTLTISSLQPEDFATYYCQQSHSLPITFGQGTKVEIK : 0.011
IFWM3411 (antibody, IgG1, V domains shown, mAb; IgG1/kappa said of the parent and of selected mAbs; also called IFWB3146) VH: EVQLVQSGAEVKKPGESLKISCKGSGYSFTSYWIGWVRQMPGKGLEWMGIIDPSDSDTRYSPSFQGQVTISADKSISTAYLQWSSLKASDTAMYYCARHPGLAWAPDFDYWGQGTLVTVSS VL: DIQMTQSPSSLSASVGDRVTITCRASQSIDNNNLNWYQQKPGKAPKLLIYAASSLQSGVPSRFSGSGSGTDFTLTISSLQPEDFATYYCQQGYDWPLTFGQGTKVEIK : 0.028
IFWM3385 (antibody, IgG1, V domains shown, mAb; IgG1/kappa said of the parent and of selected mAbs; also called IFWB3120) VH: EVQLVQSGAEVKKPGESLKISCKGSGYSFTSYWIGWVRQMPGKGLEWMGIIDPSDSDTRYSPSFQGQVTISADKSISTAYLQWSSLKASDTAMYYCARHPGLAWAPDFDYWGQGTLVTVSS VL: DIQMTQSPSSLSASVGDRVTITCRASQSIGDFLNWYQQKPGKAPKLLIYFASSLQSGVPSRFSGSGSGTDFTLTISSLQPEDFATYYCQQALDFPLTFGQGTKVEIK : 0.032
IFWM3409 (antibody, IgG1, V domains shown, mAb; IgG1/kappa said of the parent and of selected mAbs; also called IFWB3144) VH: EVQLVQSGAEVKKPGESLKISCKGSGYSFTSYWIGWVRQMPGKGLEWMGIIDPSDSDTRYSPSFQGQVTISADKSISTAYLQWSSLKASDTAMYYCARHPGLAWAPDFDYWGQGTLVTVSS VL: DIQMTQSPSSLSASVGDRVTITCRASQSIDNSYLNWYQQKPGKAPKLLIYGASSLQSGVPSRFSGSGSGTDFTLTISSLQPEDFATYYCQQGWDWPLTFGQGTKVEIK : 0.014
IFWM3387 (antibody, IgG1, V domains shown, mAb; IgG1/kappa said of the parent and of selected mAbs; also called IFWB3122) VH: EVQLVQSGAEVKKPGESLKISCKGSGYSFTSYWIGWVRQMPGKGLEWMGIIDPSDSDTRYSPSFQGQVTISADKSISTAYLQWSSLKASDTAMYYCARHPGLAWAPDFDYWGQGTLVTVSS VL: DIQMTQSPSSLSASVGDRVTITCRASQSIGGFLNWYQQKPGKAPKLLIYFASSLQSGVPSRFSGSGSGTDFTLTISSLQPEDFATYYCQQSYSLPITFGQGTKVEIK : 0.039

As a next step, examine the binder that follows.
Asked: Which value of Kd has been reported for IFWM3413 (antibody, IgG1, V domains shown, mAb; IgG1/kappa said of the parent and of selected mAbs; also called IFWB3148) VH: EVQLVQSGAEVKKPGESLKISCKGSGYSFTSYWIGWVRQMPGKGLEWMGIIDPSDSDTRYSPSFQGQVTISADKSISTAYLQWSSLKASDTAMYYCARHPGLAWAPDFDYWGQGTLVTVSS VL: DIQMTQSPSSLSASVGDRVTITCRASQSINYLNWYQQKPGKAPKLLIYGASSLQSGVPSRFSGSGSGTDFTLTISSLQPEDFATYYCQQSHDWPITFGQGTKVEIK in the records?
Given back: 0.047
